System tested: human beta-Klotho (human, UniProt Q86Z14 1-1044)
Test details: cell-based or functional assay
Endpoint label: pERK-HEK293-Beta-klotho without HSA [EC50 (nM)] Median Value
All answers are understood in nM, so give the number only.

A selection of reference data follows.
[[record]]
binder = "Derivative 17: Analog 1 with modifying moiety III on the sulphur of Cys 71 (ligand, Cys 71: {2-[2-(2-{2-[2-(2-{2-[(S)-4-Carboxy-4-(17-carboxyheptadecanoylamino)butyrylamino]ethoxy}ethoxy)acetylamino]ethoxy}ethoxy)acetylamino]ethylcarbamoyl}methyl (modifying moiety III) on the sulphur atom) AHPIPDSSPLLQFGGQVRQRYLYTDDAQQTEAHLEIREDGTVGGAADQSPESLLQLKALKPGVIQILGVKTCRFLCQRPDGALYGSLHFDPEACSFRELLLEDGYNVYQSEAHGLPLHLPGNKSPHRDPAPRGPARFLPLPGLPPALPEPPGILAPQPPDVGSSDPFGLVGPSQVRSPSFE"
value_units = "nM"
data_value = 0.98

[[record]]
binder = "[-1A, S71C, L166F, S167G, M168L, G174V, Y179F, A180E] FGF-21 (ligand) AHPIPDSSPLLQFGGQVRQRYLYTDDAQQTEAHLEIREDGTVGGAADQSPESLLQLKALKPGVIQILGVKTCRFLCQRPDGALYGSLHFDPEACSFRELLLEDGYNVYQSEAHGLPLHLPGNKSPHRDPAPRGPARFLPLPGLPPALPEPPGILAPQPPDVGSSDPFGLVGPSQVRSPSFES"
value_units = "nM"
data_value = 0.64

[[record]]
binder = "Derivative 101: Analog 10 with modifying moiety III on the sulphur of Cys 71 (ligand, Cys 71: {2-[2-(2-{2-[2-(2-{2-[(S)-4-Carboxy-4-(17-carboxyheptadecanoylamino)butyrylamino]ethoxy}ethoxy)acetylamino]ethoxy}ethoxy)acetylamino]ethylcarbamoyl}methyl (modifying moiety III) on the sulphur atom) AHPIPDSSPLLQFGGQVRQRYLYTDDAQQTEAHLEIREDGTVGGAADQSPESLLQLKALKPGVIQILGVKTCRFLCQRPDGALYGSLHFDPEACSFRELLLEDGYNVYQSEAHGLPLHLPGQKSPHRDPAPRGPARFLPLPGLPPALPEPPGILAPQPPDVGSSDPFGLVGLEAVRSPS"
value_units = "nM"
data_value = 23.8

[[record]]
binder = "[-1A, S71C, L166F, S167G, M168L, P171L, S172E, Q173A, G174V, Y179F, A180E, des181] FGF-21 (ligand) AHPIPDSSPLLQFGGQVRQRYLYTDDAQQTEAHLEIREDGTVGGAADQSPESLLQLKALKPGVIQILGVKTCRFLCQRPDGALYGSLHFDPEACSFRELLLEDGYNVYQSEAHGLPLHLPGNKSPHRDPAPRGPARFLPLPGLPPALPEPPGILAPQPPDVGSSDPFGLVGLEAVRSPSFE"
value_units = "nM"
data_value = 0.77


Q: Request the reported pERK-HEK293-Beta-klotho without HSA [EC50 (nM)] Median Value associated with [-1A, S71C, N121Q, L166F, S167G, M168L, G174V, Y179F, A180E, des181] FGF-21 (ligand) AHPIPDSSPLLQFGGQVRQRYLYTDDAQQTEAHLEIREDGTVGGAADQSPESLLQLKALKPGVIQILGVKTCRFLCQRPDGALYGSLHFDPEACSFRELLLEDGYNVYQSEAHGLPLHLPGQKSPHRDPAPRGPARFLPLPGLPPALPEPPGILAPQPPDVGSSDPFGLVGPSQVRSPSFE
A: 0.78

Q: Query: pERK-HEK293-Beta-klotho without HSA [EC50 (nM)] Median Value; subject: [-1A, 121Q, 166F, 167G, 168L, 171L, 172E, 173A, 174V, 179F, 180E, des181] FGF-21 (ligand) AHPIPDSSPLLQFGGQVRQRYLYTDDAQQTEAHLEIREDGTVGGAADQSPESLLQLKALKPGVIQILGVKTSRFLCQRPDGALYGSLHFDPEACSFRELLLEDGYNVYQSEAHGLPLHLPGQKSPHRDPAPRGPARFLPLPGLPPALPEPPGILAPQPPDVGSSDPFGLVGLEAVRSPSFE
A: 0.7

Reference source: patent US20130252884A1
